src = PubChem BioAssay (NCI)

Test system: SR leukemia
experiment: NCI tumour cell line growth inhibition, 48 h
The entries below come with measured GI50 values attached.

Worked cases, GI50 given:
Enquiry: Give the measured GI50 of CCC[CH2][Sn]1([CH2]CCC)[O]C(c2ccccn2)S(=O)(=O)[O]1 (configuration not stated) .
Return: 2450 nM

Enquiry: Give the measured GI50 of CN1CCN(C(=O)c2ccc(NC(=O)Nc3ccc(N(C)c4ccnc(Nc5ccc(CS(C)(=O)=O)cc5)n4)cc3)cc2)CC1 .
Return: > 12700 nM

Enquiry: Give the measured GI50 of COc1ccc(C(=O)/C=C/c2cc3ccccc3[nH]c2=O)cc1 .
Return: 17300 nM

Enquiry: Give the measured GI50 of Cc1ccc(-c2csc(N(C(=O)N3CCN(c4cc5c(cc4F)c(=O)c(C(=O)O)cn5C4CC4)CC3)c3ccccc3)n2)cc1 .
Return: 238 nM

Enquiry: Give the measured GI50 of Cc1cc(NC(=O)c2ccc(NS(=O)(=O)CCO)cc2N2CCC3(CC2)CC3)nc(N2CCC(F)(F)CC2)n1 .
Return: 1680 nM

---
Enquiry: Give the measured GI50 of CC(C)(Cl)CCC1=C(Cl)C(=O)c2ccccc2C1=O .
Return: 2040 nM

Enquiry: Give the measured GI50 of CCCCCCN(CCCCCC)C(=N)c1ccnc2ccccc12 .
Return: 1740 nM
